# System: P. falciparum stage V gametocytes
# Design: BacTiter-Glo ATP luminescence viability of purified stage V gametocytes in 384-well plates, per cent inhibition versus DMSO
# TEST SETTINGS: 48 h, 5 µM; inhibitor
Screen size: about 13,000 compounds; about 3,200 (25%) showed an effect of 50% or more. The list shows a part of the results.
MEASURE NAME: % Inhibition (%)
One number for each entry, in %.

• CCc1ccc(NC(=O)C=NNC(=N)N)cc1 = -23.47
• O=C(O)C(F)(F)F.c1cc(-c2ccc(CNCCCn3ccnc3)cc2)cc(-c2nc3ccccc3[nH]2)c1 = 99.24
• CN1CC[C@H](N(Cc2ccccc2F)c2ccc(C#N)c(Cl)c2)C1 = 21.12
• COc1cc2nc(Nc3ccc4c(cnn4Cc4ccccc4)c3)nc(Nc3ccc4c(cnn4Cc4ccccc4)c3)c2cc1OC = 106.8
• CC(Cc1ccc(OCc2ccccc2)cc1)Nc1nc2ccccc2c(=O)[nH]1 (stereo not shown) = -11.7

Consider the following items and state reported % Inhibition for each.
1. CC(=O)Nc1ccc(CN2Cc3ccc(NC(=O)Nc4ccc(Oc5ccccc5)cc4)cc3C2)s1
2. CCN(CC)CCCC(C)Nc1ccnc2ccc(-c3ccccc3)cc12 (stereo not shown)

1: -76.53; 2: 41.59

Consider the following items and state reported % Inhibition for each.
1. COc1cc2nc(C)nc(Nc3ccc4c(ccn4Cc4ccccc4)c3)c2cc1OC
2. COc1cccc2cc(C(=O)N[C@@H](CC(C)C)C(=O)N[C@H](C=NN3CCOC3=O)Cc3ccccc3)oc12
3. COc1ccc2nccc(C(=O)NC3CCC(CCN4CCc5cc(C#N)ccc5C4)CC3)c2c1 (stereo not shown)

1. 19.01
2. -0.683
3. 4.839

Consider the following items and state reported % Inhibition for each.
1. CC(CCc1ccc(OCc2ccccc2)cc1)NCC(O)c1ccccc1 (stereo not shown)
2. O=C(O)C(F)(F)F.O=C1CCCN1CCCNCc1ccc(-c2cccc(-c3nc4ccccc4[nH]3)c2)cc1
3. CC(Cc1ccc(OCCCCOc2ccccc2)cc1)NCCc1ccccc1Cl (stereo not shown)
4. COC(=O)c1ccc(CC(C)NCC(O)c2ccccc2Cl)cc1 (stereo not shown)
5. Cn1nccc1C(=O)NCCNCc1ccc(-c2cccc(-c3nc4ccccc4[nH]3)c2)cc1.O=C(O)C(F)(F)F
6. O=C(O)C(F)(F)F.c1ccc2[nH]c(-c3ccc(-c4ccc(CN5CCN(CCN6CCOCC6)CC5)cc4)cc3)nc2c1

1. 8.257
2. -11.63
3. 97.11
4. 7.207
5. -0.1444
6. -28.02
